biological target: GDP-bound KRAS wild-type protein (Homo sapiens, UniProt P01116); test: Binding to KRAS by surface plasmon resonance (SPR), dissociation constant KD; details: 1:1 binding model
Sequence (P01116 1-188 isoform P01116-2): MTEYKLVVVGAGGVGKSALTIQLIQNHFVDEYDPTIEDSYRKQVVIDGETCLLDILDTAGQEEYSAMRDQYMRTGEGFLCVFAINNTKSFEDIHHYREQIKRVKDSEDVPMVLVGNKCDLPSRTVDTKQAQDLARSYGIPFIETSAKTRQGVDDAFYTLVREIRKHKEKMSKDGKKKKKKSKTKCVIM
pKd: −log10 of the molar value.
Quantity Name: pKd

{"Compound Structure String": "CCO[C@@H]1C[C@H]2C(=O)NC3(CC(C)(C)C3)C(=O)N(C)[C@@H](C3CCCC3)C(=O)N(C)[C@H](C(=O)N(C)CC)CC(=O)N(C)[C@@H](CC(C)C)C(=O)N[C@@H]([C@@H](C)CC)C(=O)N(C)CC(=O)N(C)[C@H]3C/C=C\\CCN(C3=O)[C@@H](Cc3ccc(C(F)F)cc3)C(=O)N(C)CC(=O)N[C@@H](CCc3ccc(C(F)(F)F)c(C4CC4)c3)C(=O)N2C1", "Experimental System": "GDP-bound KRAS wild-type protein (Homo sapiens, UniProt P01116)", "Reported": 9.64}
{"Compound Structure String": "CCO[C@@H]1C[C@H]2C(=O)NC3(CC(C)(C)C3)C(=O)N(C)[C@@H](C(CC)CC)C(=O)N(C)[C@H](C(=O)N(C)C)CC(=O)N(C)[C@@H](COC)C(=O)N[C@@H]([C@@H](C)CC)C(=O)N(C3CC3)CC(=O)N(C)[C@H]3C/C=C\\CCN(C3=O)[C@@H](CC3CCCCC3)C(=O)N(C)CC(=O)N[C@@H](CCc3cc(F)c(C(F)(F)F)c(F)c3)C(=O)N2C1", "Experimental System": "GDP-bound KRAS wild-type protein (Homo sapiens, UniProt P01116)", "Reported": 8.12}
{"Compound Structure String": "CCO[C@@H]1C[C@H]2C(=O)NC3(CC(C)(C)C3)C(=O)N(C)[C@@H](C3CCCC3)C(=O)N(C)[C@H](C(=O)N(C)CC)CC(=O)N(C)[C@@H]([C@@H](C)OC)C(=O)N[C@@H]([C@@H](C)CC)C(=O)N3CCC[C@H]3C(=O)N(C)[C@H]3C/C=C\\CCN(C3=O)[C@@H](Cc3ccc(C)cc3)C(=O)N(C)CC(=O)N[C@@H](CCc3ccc(C(F)(F)F)c(OC)c3)C(=O)N2C1", "Experimental System": "GDP-bound KRAS wild-type protein (Homo sapiens, UniProt P01116)", "Reported": 9.00}
{"Compound Structure String": "CC[C@H](C)[C@@H]1NC(=O)[C@H](COC)N(C)C(=O)C[C@@H](C(=O)N(C)C)N(C)C(=O)[C@H](C2CCCC2)N(C)C(=O)C2(CC(C)(C)C2)NC(=O)[C@@H]2C[C@H](C)CN2C(=O)[C@H](CCc2ccc(C(F)(F)F)c(OC)c2)NC(=O)CN(C)C(=O)[C@H](Cc2ccc(C)cc2)N2CC/C=C\\C[C@@H](C2=O)N(C)C(=O)[C@@H]2C[C@H](OC)CN2C1=O", "Experimental System": "GDP-bound KRAS wild-type protein (Homo sapiens, UniProt P01116)", "Reported": 9.55}

These measurements were taken from patent EP4603105A1.
